All values here come from PubChem BioAssay AID651581.

Can you tell me IC50 for the items I'm about to list?
biological target: Endothelial PAS domain-containing protein 1 (Homo sapiens); assay: HIF-2a and HIF-1a reporter inhibition panel, dose response, selectivity assay for HIF-2a inhibitor project, cell-based, luminescence (AID 651581); conditions: HIF-2a PANC, run 1
Give your result in µM as a bare value.

## Input Which IC50 is reported for this compound? `N#Cc1c(NC(=O)CCCC(=O)O)sc2c1CCCCC2`
## Output 0.379

## Input Which IC50 is reported for this compound? `Cc1ccc(C)c(-c2nc3cc(N)ccc3o2)c1`
## Output 2.6

## Input Which IC50 is reported for this compound? `Cc1ccc(C(=O)c2cccc(N)c2)cc1C`
## Output 3.29

## Input Which IC50 is reported for this compound? `Cc1cc(C)c(C)c(S(=O)(=O)ON2C(=O)c3ccccc3C2=O)c1C`
## Output 50.9

## Input Which IC50 is reported for this compound? `CCOC(=O)Cc1csc(N/N=C/c2ccc(C(F)(F)F)cc2)n1`
## Output 0.556

## Input Which IC50 is reported for this compound? `Nc1ccc(-c2ncc(-c3ccccc3)o2)cc1`
## Output 0.202

----------
biological target: Endothelial PAS domain-containing protein 1 (Homo sapiens); test: HIF-2a and HIF-1a reporter inhibition panel, dose response, selectivity assay for HIF-2a inhibitor project, cell-based, luminescence (AID 651581); settings: HIF-2a PANC, run 2
quantity: IC50 (µM)
Give your result in µM as a bare value.

## Input Which IC50 is reported for this compound? `CC(=O)c1ccc(NC(=O)c2cnn3ccccc23)cc1`
## Output 16.6

## Input Which IC50 is reported for this compound? `N#Cc1c(NC(=O)CCCC(=O)O)sc2c1CCCCC2`
## Output 0.455

## Input Which IC50 is reported for this compound? `CCOC(=O)c1c(C)nn(-c2ccc(NC(=O)c3c(C)noc3C)cc2)c1C`
## Output 13.2

## Input Which IC50 is reported for this compound? `O=C(O)c1cccc(CSc2nnc(-c3ccc(Cl)cc3)o2)c1`
## Output 2.6

## Input Which IC50 is reported for this compound? `O=C(Nc1ccc(Cl)cc1Cl)c1cccc(N2C(=O)C=CC2=O)c1`
## Output 28.1

## Input Which IC50 is reported for this compound? `CCOc1ccc2nc(SCc3ccc(CC(=O)O)cc3)c(C#N)cc2c1`
## Output 3.27

## Input Which IC50 is reported for this compound? `CC(=O)Nc1ccc(NC(=O)c2oc3cc(C)c(C)cc3c2C)cc1`
## Output 16.5

## Input Which IC50 is reported for this compound? `Cc1ccc(C)c(-c2nc3cc(N)ccc3o2)c1`
## Output 2.7

## Input Which IC50 is reported for this compound? `N#C/C(=C\c1ccccc1)C(=O)N(c1ccccn1)C1CCCCC1`
## Output 71.2

## Input Which IC50 is reported for this compound? `Cc1ccc(NC(=S)NNc2ncc(C(F)(F)F)cc2Cl)cc1`
## Output 0.928

## Input Which IC50 is reported for this compound? `Nc1ccc(-c2ncc(-c3ccccc3)o2)cc1`
## Output 0.292

## Input Which IC50 is reported for this compound? `Cc1nc2cc(-c3ccccc3)nn2c(C)c1CCC(=O)N1CCC2(CC1)OCCO2`
## Output 2.35

## Input Which IC50 is reported for this compound? `CCN(CC)S(=O)(=O)c1ccc(NC(=O)c2cccnc2Cl)c(NC(=O)c2cccnc2Cl)c1`
## Output 7.07

----------
target: Endothelial PAS domain-containing protein 1 (Homo sapiens); assay: HIF-2a and HIF-1a reporter inhibition panel, dose response, selectivity assay for HIF-2a inhibitor project, cell-based, luminescence (AID 651581); details: HIF-2a PANC, run 2
Can you tell me IC50 for the items I'm about to list?
Give your result in µM as a bare value.

## Input Which IC50 is reported for this compound? `O=C(O)c1ccc2nc(-c3ccccc3)sc2c1`
## Output 10.2

## Input Which IC50 is reported for this compound? `CCOC(=O)Cc1csc(NC(=S)NC(=O)c2ccc(F)cc2)n1`
## Output 13.5

## Input Which IC50 is reported for this compound? `N=c1nc(SCCC(=O)O)ss1`
## Output 39.5

## Input Which IC50 is reported for this compound? `CCS(=O)(=O)c1ncc(Cl)c(C(=O)Nc2ccc(C)cc2)n1`
## Output 30.7

## Input Which IC50 is reported for this compound? `O=C(Nc1ccccc1)c1nnsc1S(=O)(=O)c1ccc(Cl)cc1`
## Output 80.5

## Input Which IC50 is reported for this compound? `NNC(=O)COc1ccc(-c2nccc(-c3ccc(F)cc3)n2)cc1`
## Output 2.34

## Input Which IC50 is reported for this compound? `Cc1nc2cc(-c3ccccc3)nn2c(C)c1CCC(=O)NCc1ccco1`
## Output 2.62

## Input Which IC50 is reported for this compound? `CSC(SC)=C(C#N)C(=O)c1ccccc1`
## Output 77

## Input Which IC50 is reported for this compound? C=C1C(=O)OC2CC3(C)OC3C3OC3C3=CC(OC3=O)C12 (centres undefined)
## Output 59.7

## Input Which IC50 is reported for this compound? `Cc1cc(SC#N)cc(C)c1NC(=O)CCl`
## Output 93.4

## Input Which IC50 is reported for this compound? `COc1cc(OC)cc(-c2nnc(Nc3nc4c(F)cccc4s3)o2)c1`
## Output 5.21

## Input Which IC50 is reported for this compound? `Cc1ccc(S(=O)(=O)ON2C(=O)c3ccccc3C2=O)c(C)c1`
## Output 38.7

## Input Which IC50 is reported for this compound? `COc1ccc(CNC(=O)c2nc(S(=O)(=O)Cc3ccccc3)ncc2Cl)cc1`
## Output 31.1

## Input Which IC50 is reported for this compound? `CC(=O)Nc1ccc(NC(=O)c2ccc(-c3ccnn3C)c3ccoc23)cc1`
## Output 1.67

## Input Which IC50 is reported for this compound? `Nc1ccc2oc(-c3cc(Br)ccc3Cl)nc2c1`
## Output 0.492

## Input Which IC50 is reported for this compound? `FC(F)(F)c1cnc(NNC(=S)Nc2ccccc2)c(Cl)c1`
## Output 3.36

## Input Which IC50 is reported for this compound? `Cc1c(CCC(=O)O)c(=O)oc2cc(OCc3ccccc3Br)ccc12`
## Output 9.09

## Input Which IC50 is reported for this compound? `CC(C)COc1ccc(C(=S)N2CCCC2)cc1`
## Output 15.5

----------
Can you tell me IC50 for the items I'm about to list?
target: Hypoxia-inducible factor 1-alpha (Homo sapiens); assay: HIF-2a and HIF-1a reporter inhibition panel, dose response, selectivity assay for HIF-2a inhibitor project, cell-based, luminescence (AID 651581); conditions: HIF-1a, run 1
Give your result in µM as a bare value.

## Input Which IC50 is reported for this compound? `CC(=O)c1ccc(NC(=O)c2cnn3ccccc23)cc1`
## Output 12.9

## Input Which IC50 is reported for this compound? `C=CS(=O)(=O)c1sc(Cl)c(N2CCOCC2)c1[N+](=O)[O-]`
## Output 47.5

## Input Which IC50 is reported for this compound? `CCOC(=O)Cn1cc(/C=C/[N+](=O)[O-])c2ccccc21`
## Output 17.7

## Input Which IC50 is reported for this compound? `CN(C)c1c([N+](=O)[O-])cc(N2C(=O)C=CC2=O)cc1[N+](=O)[O-]`
## Output 63.9

----------
molecular target: Endothelial PAS domain-containing protein 1 (Homo sapiens) (UniProt Q99814); assay: HIF-2a and HIF-1a reporter inhibition panel, dose response, selectivity assay for HIF-2a inhibitor project, cell-based, luminescence (AID 651581); details: HIF-2a PANC, run 1
Category scheme (IC50): low group: < 2 µM; middle group: ≥ 2 µM and < 10 µM; high group: ≥ 10 µM

## Input Could you tell me which band `Cc1nc2cc(-c3ccccc3)nn2c(C)c1CCC(=O)N1CCN(c2ccccc2)CC1` belongs to?
## Output low group

## Input Could you tell me which band `CC(=O)Nc1ccc(Oc2sc(C(=O)c3ccccc3)c(N)c2C#N)cc1` belongs to?
## Output high group

## Input Could you tell me which band `CCOC(=O)CNC(=O)CSc1nnc(NC(=O)c2ccc(C)cc2)s1` belongs to?
## Output high group

## Input Could you tell me which band `Cc1ccc(S(=O)(=O)Nc2cccc3cccnc23)c([N+](=O)[O-])c1` belongs to?
## Output high group

## Input Could you tell me which band `COc1ccccc1N1C(=O)C=C(Sc2nc(C)cc(C)n2)C1=O` belongs to?
## Output high group

## Input Could you tell me which band `CSC(SC)=C(C#N)C(=O)c1ccccc1` belongs to?
## Output high group

## Input Could you tell me which band COc1ccccc1C(C[N+](=O)[O-])c1c(N)n(C)c(=O)n(C)c1=O (stereo not drawn) belongs to?
## Output high group

## Input Could you tell me which band `Cc1ccc(NC(=S)NNc2ncc(C(F)(F)F)cc2Cl)cc1` belongs to?
## Output low group

## Input Could you tell me which band `O=C(O)c1cccc(CSc2nnc(COc3ccccc3)o2)c1` belongs to?
## Output high group

## Input Could you tell me which band `COC(=O)Cc1ccc(NC(=O)c2ccc(C(C)(C)C)cc2)cc1` belongs to?
## Output low group

## Input Could you tell me which band `CC(C)C[C@@H](N)c1nnc(SCC(=O)c2ccc(Cl)cc2)o1` belongs to?
## Output middle group

## Input Could you tell me which band `O=Nc1c(O)ccc2cc(S(=O)(=O)O)ccc12` belongs to?
## Output high group

## Input Could you tell me which band `Nc1ccc(-c2cc3ccccc3c(=O)o2)cc1` belongs to?
## Output low group

## Input Could you tell me which band `Cc1c(CCC(=O)N2CCC[C@H]2C(=O)O)c(=O)oc2cc3oc4c(c3cc12)CCCC4` belongs to?
## Output low group

## Input Could you tell me which band `O=C(c1ccccc1)N1CCSc2sccc2C1=O` belongs to?
## Output high group

## Input Could you tell me which band `O=C(CCCc1nc(-c2ccccc2Cl)no1)NC1CCCC1` belongs to?
## Output low group

## Input Could you tell me which band `Cc1c(CCC(=O)NCCC(=O)O)c(=O)oc2c(C)c3oc4c(c3cc12)CCCC4` belongs to?
## Output middle group

## Input Could you tell me which band `COC(=O)COc1ccc(-c2nccc(-c3ccccn3)n2)cc1` belongs to?
## Output middle group

## Input Could you tell me which band `Cc1nnnn1/C(=C\c1ccccc1)C(=O)OCC(=O)Nc1ccc(Cl)cc1F` belongs to?
## Output high group
